All values here come from patent US12338203B2.

Molecular target: human LPAR1 (Homo sapiens)
Construct: expressed in transfected cells
Sequence (Q92633 whole entry): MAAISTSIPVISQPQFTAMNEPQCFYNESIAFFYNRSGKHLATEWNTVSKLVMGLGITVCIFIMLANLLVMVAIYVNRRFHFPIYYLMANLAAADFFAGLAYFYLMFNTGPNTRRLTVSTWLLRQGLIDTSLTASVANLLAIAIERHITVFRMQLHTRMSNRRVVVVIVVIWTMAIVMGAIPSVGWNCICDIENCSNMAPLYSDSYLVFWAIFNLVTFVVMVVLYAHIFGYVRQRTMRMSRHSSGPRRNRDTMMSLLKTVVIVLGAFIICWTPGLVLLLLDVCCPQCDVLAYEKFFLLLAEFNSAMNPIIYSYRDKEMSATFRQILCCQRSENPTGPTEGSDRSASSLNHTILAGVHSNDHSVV
Test: Test Example 1: antagonism against response of LPA-induced increase in intracellular Ca2+ concentration in RH7777 cells stably expressing human LPAR1
Assay type: cell-based
Settings: RH7777 cells stably expressing human LPAR1; Fluo-4 fluorescence, FDSS6000; read-out: IC50 value (concentration producing 50% antagonism against response of LPA-induced increase in intracellular Ca2+ concentration) (converted)
Procedure: (1) Preparation of RH7777 cells stably expressing human LPAR1 The human LPAR1 expression vector was transfected into RH7777 cells to acquire human LPAR1 expressing cells. […] The cells were seeded onto the Poly-D-Lysine 96 well black plate and incubated overnight. […] In FDSS6000 (Hamamatsu Photonics K.K.), LPAs were added, and the change in intracellular Ca^2+ concentration was detected using the fluorescence value of a wavelength of 540 nm by an excitation wavelength of 480 nm as an indicator. […]
Kindly apply the following: satisfied if IC50 is less than 20 nM, not satisfied in every other case.

IN: Quick check: IC50 of CCOc1cccc(C(C)N(CCCCc2ccccc2)C(=O)NC2(C(=O)O)CC(F)(F)C2)c1 (stereo not drawn) under 20 nM?
OUT: not satisfied

IN: Is the reported IC50 for CCNc1cc(C(C)N(CCCCc2ccccc2)C(=O)NC2(C(=O)O)CC(F)(F)C2)cc(OCC)c1C(C)=O (stereo not drawn) strictly below 20 nM?
OUT: satisfied

IN: Is IC50 of CCOc1cc([C@@H](C)N(CCO[C@@H](C)c2ccccc2)C(=O)N[C@]2(C(=O)O)C[C@H](OC)C2)c(Cl)c(OCC)c1C(C)O (single isomer, unassigned) [Example 5-60] strictly below 20 nM?
OUT: satisfied

IN: Is IC50 of CCOc1cc(C(C)N(CCCCc2ccccc2)C(=O)NC2(C(=O)O)CC(C)(C)C2)cc(OCC)c1C(C)=O (stereo not drawn) strictly below 20 nM?
OUT: satisfied

IN: IC50 under 20 nM? Item: CCOc1cc([C@@H](C)N(CCCCc2ccccc2)C(=O)NC2CCC2C(=O)O)cc(OCC)c1C(C)=O (stereo partly drawn)
OUT: satisfied

IN: Identify whether the compound CCOc1cc(C(=O)NC)cc(C(C)N(CCCCc2ccccc2)C(=O)NC2(C(=O)O)CC(F)(F)C2)c1 (stereo not drawn) records IC50 below 20 nM.
OUT: not satisfied

IN: Is IC50 of CCOc1cc([C@@H](C)N(CCO[C@@H](C)c2ccccc2)C(=O)N[C@]2(C(=O)O)C[C@@H](OCC)C2)c(Cl)c(OCC)c1C(C)=O strictly below 20 nM?
OUT: satisfied

IN: Determine if COCc1cc(OC)cc(C(C)N(CCCCc2ccccc2)C(=O)NC2(C(=O)O)CC(F)(F)C2)c1 (stereo not drawn) shows IC50 strictly lower than 20 nM.
OUT: satisfied

IN: Please let me know if CCOc1cc([C@@H](C)N(CCCCc2ccccc2)C(=O)NC2(C(=O)O)CCOCC2)cc(OCC)c1C(C)=O shows IC50 below 20 nM.
OUT: satisfied

IN: Is it true that IC50 reported for Cc1cc(C)cc(CN(CCCCc2ccccc2)C(=O)NC2(C(=O)O)CCCC2)c1 is less than 20 nM?
OUT: not satisfied

IN: Record CCOc1cc([C@@H](C)N(CCCCc2ccc(OC)cc2)C(=O)NC2(C(=O)O)CC(F)(F)C2)cc(OCC)c1C : is its IC50 strictly below 20 nM?
OUT: not satisfied

IN: Please indicate whether the reported IC50 of CCOc1c(C2CC2)ccc([C@@H](C)N(CCOC(C)c2ccccc2Cl)C(=O)NC2(C(=O)O)CCC2)c1C (stereo partly drawn) is strictly below 20 nM.
OUT: not satisfied

IN: Hello, I'm reviewing records and need to know if IC50 of CCOc1cc([C@@H](C)N(CCO[C@@H](C)c2ccccc2)C(=O)N[C@H]2C[C@@](C)(C(=O)O)C2)cc(OCC)c1C(C)=O is below 20 nM. Could you check?
OUT: satisfied

IN: Identify whether the compound CCOc1cc([C@@H](C)N(CCC(F)(F)Cc2ccccc2)C(=O)NC2(C(=O)O)CC2)cc(OCC)c1C(C)=O records IC50 below 20 nM.
OUT: not satisfied

IN: Lab note: IC50 threshold 20 nM. Does this compound come in strictly under it? CCOc1cc([C@@H](C)N(CCO[C@@H](C)c2ccccc2)C(=O)NC2(C(=O)O)CC2)c(Cl)c(OCC)c1C(C)=O
OUT: satisfied

IN: Confirm or reject: IC50 of CCOc1c(C(C)=O)ccc([C@@H](C)N(CCO[C@@H](C)c2ccccc2)C(=O)N[C@]2(C(=O)O)C[C@H](OCC)C2)c1C lies strictly below 20 nM
OUT: satisfied

IN: Criterion: IC50 strictly below 20 nM. Is it met by CCOc1cc([C@@H](C)N(CCCc2ccncc2)C(=O)NC2(C(=O)O)CC(F)(F)C2)cc(COC)c1C ?
OUT: not satisfied

IN: Identify whether the compound CCOc1cc([C@@H](C)N(CCOCc2ccccc2)C(=O)N[C@]2(C(=O)O)C[C@@H](OCC)C2)c(C)c(OCC)c1C records IC50 below 20 nM.
OUT: satisfied

IN: # strict comparison: is reported IC50 < 20 nM? input = CCOc1cc([C@@H](C)N(CCCCc2ccccc2)C(=O)NCC2(C(=O)O)CCOCC2)cc(OCC)c1C(C)=O
OUT: not satisfied

IN: Given the entry CCOc1cc(C(C)N(CCO[C@@H](C)c2ccccc2)C(=O)N[C@]2(C(=O)O)C[C@H](OCC)C2)cc(OCC)c1C(C)O (stereo partly drawn) , would its reported IC50 be below 20 nM?
OUT: satisfied

IN: Bench note: check whether COc1cc(C(C)N(CCCCc2ccccc2)C(=O)NC2(C(=O)O)CCCC2)cc(OC)c1C (stereo not drawn) shows IC50 below 20 nM
OUT: not satisfied

IN: Hi there! Is IC50 for CCOc1cc([C@@H](C)N(CCCCc2ccccc2)C(=O)NC2(C(=O)O)CCC2)cc(OCC)c1C(C)=O below 20 nM, do you know?
OUT: satisfied

IN: Confirm or reject: IC50 of COc1cc(C(C)N(CCOCc2ccccc2)C(=O)NC2(C(=O)O)CC(OC)C2)c(Cl)c(OC)c1C1CC1 (stereo not drawn) [Example 5-153] lies strictly below 20 nM
OUT: satisfied

IN: Given the entry CCOc1cc([C@@H](C)N(CCCCc2ccccc2)C(=O)NC2(C(=O)O)CCC2)cc(OCC)c1C(C)O (single isomer, unassigned) [Example 1-21] , would its reported IC50 be below 20 nM?
OUT: satisfied

IN: Strictly below 20 nM: is that where IC50 of CCOc1cc(C(C)N(CCC(F)(F)Cc2ccccc2)C(=O)NC2(c3nn[nH]n3)CC(F)(F)C2)c(Cl)c(OCC)c1C(C)=O (stereo not drawn) sits?
OUT: not satisfied

IN: Does this compound meet the criterion IC50 < 20 nM? CCOc1cc(C(C)N(CCOCc2ccccc2)C(=O)NC2(C(=O)O)CC(OCC)C2)cc(OCC)c1C1CC1 (stereo not drawn) [Example 5-211]
OUT: satisfied

IN: Find out if reported IC50 for CCOc1cc([C@@H](C)N(CCCCc2ccccc2)C(=O)NC(C)(C)C(=O)O)cc(OCC)c1C(C)=O is less than 20 nM
OUT: satisfied
